# Method: Half life in rat at 0.2 mg/kg, po
# Type: ADME, organism-based
# Design: dose 0.2 mg/kg, route oral
# Particulars: in vivo
Endpoint Name: half-life

# Molecule, Reported Value
records = [
    ("CS(=O)(=O)Nc1cc([C@@H](O)CNCCCCCCCCCN2CCC(OC(=O)Nc3ccccc3-c3ccc(O)c(Cl)c3)CC2)ccc1O", "1.6 h"),
]

----------
# Method: Intrinsic clearance in human liver microsomes assessed as glucuronidation in absence of NADPH and presence of microsomal activator Brij58 and UDPGA
Mark Criterion met only for microsomal CLint values smaller than 30 µL/min/mg; exact matches and larger values are Criterion not met.

# Molecule, Assigned Category
records = [
    ("CS(=O)(=O)Nc1cc([C@@H](O)CNCCCCCCCCCN2CCC(OC(=O)Nc3ccccc3-c3cc(C#N)ccc3O)CC2)ccc1O", "Criterion not met"),
    ("CS(=O)(=O)Nc1cc([C@@H](O)CNCCCCCCCCCN2CCC(OC(=O)Nc3cc(F)ccc3-c3ccc(O)c(Cl)c3)CC2)ccc1O", "Criterion met"),
    ("CS(=O)(=O)Nc1cc([C@@H](O)CNCCc2ccc(OCCN3CCC(OC(=O)Nc4ccccc4-c4ccc(O)c(Cl)c4)CC3)cc2)ccc1O", "Criterion not met"),
    ("CS(=O)(=O)Nc1cc([C@@H](O)CNCCCCCCCCCCCN2CCC(OC(=O)Nc3ccccc3-c3ccc(O)c(Cl)c3)CC2)ccc1O", "Criterion not met"),
    ("CS(=O)(=O)Nc1cc([C@@H](O)CNCCCCCCCCCN2CCC(OC(=O)Nc3ccccc3-c3cc(F)cc(F)c3O)CC2)ccc1O", "Criterion met"),
    ("Cc1cc(C)c(NC(=O)OC2CCN(CCCCCCCCCNC[C@H](O)c3ccc(O)c(NS(C)(=O)=O)c3)CC2)c(-c2ccc(O)c(Cl)c2)c1", "Criterion not met"),
    ("CS(=O)(=O)Nc1cc([C@@H](O)CNCCCCCCCCCN2CCC(OC(=O)Nc3ccccc3-c3ccc(O)c(Cl)c3)CC2)ccc1O", "Criterion met"),
]

----------
# Method: Modulation of beta-2 adrenoceptor/muscarinic M3 receptor in guinea pig trachea assessed as inhibition of electric field stimulated muscle contraction by measuring release of endogenous acetylcholine
# Assay type: tissue-based, Cavia porcellus

# Molecule, Unit Info, EC50
data = [
    ("CS(=O)(=O)Nc1cc([C@@H](O)CNCCCCCCCCCN2CCC(OC(=O)Nc3ccccc3-c3ccc(O)c(Cl)c3)CC2)ccc1O", "nM", 7.3),
]

----------
# Tested System: Beta-2 adrenergic receptor (Homo sapiens, UniProt P07550)
# Sequence (P07550 whole entry): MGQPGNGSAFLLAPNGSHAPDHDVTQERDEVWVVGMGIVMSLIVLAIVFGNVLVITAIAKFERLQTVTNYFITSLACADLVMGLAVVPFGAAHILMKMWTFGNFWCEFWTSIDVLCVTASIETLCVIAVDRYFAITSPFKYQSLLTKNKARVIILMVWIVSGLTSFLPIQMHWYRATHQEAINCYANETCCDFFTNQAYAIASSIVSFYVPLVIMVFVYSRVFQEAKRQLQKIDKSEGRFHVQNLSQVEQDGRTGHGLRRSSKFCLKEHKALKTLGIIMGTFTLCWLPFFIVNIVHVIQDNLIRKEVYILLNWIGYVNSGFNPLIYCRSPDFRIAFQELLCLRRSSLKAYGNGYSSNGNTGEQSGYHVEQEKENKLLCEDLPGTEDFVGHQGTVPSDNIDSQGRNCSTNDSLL
# Method: Agonist activity at human beta-2 adrenoceptor expressed in CHO cells assessed as stimulation of intracellular cAMP production
# Type: functional, cell-based
pEC50: −log10 of the molar value.

# Molecule, pEC50
records = [
    ("CS(=O)(=O)Nc1cc([C@@H](O)CNCCCCCCCCN2CCC(OC(=O)Nc3ccccc3-c3ccc(O)c(Cl)c3)CC2)ccc1O", 7.70),
    ("CS(=O)(=O)Nc1cc([C@@H](O)CNCCCCCCCCCN2CCC(OC(=O)Nc3ccccc3-c3cccc(O)c3)CC2)ccc1O", 6.89),
    ("CS(=O)(=O)Nc1cc([C@@H](O)CNCCCCCCCCCN2C[C@@H]3[C@@H](COC(=O)Nc4ccccc4-c4ccc(O)c(Cl)c4)[C@@H]3C2)ccc1O", 7.38),
    ("CS(=O)(=O)Nc1cc([C@@H](O)CNCCCCCCCCCN2CCC(OC(=O)Nc3ccccc3-c3ccccc3)CC2)ccc1O", 7.13),
    ("CS(=O)(=O)Nc1cc([C@@H](O)CNCCCCCCCCCN2CCC(OC(=O)Nc3ccc(F)cc3-c3ccc(O)c(Cl)c3)CC2)ccc1O", 7.64),
    ("CS(=O)(=O)Nc1cc([C@@H](O)CNCCCCCCCCCN2CCC(OC(=O)Nc3ccccc3-c3cc(O)cc(F)c3)CC2)ccc1O", 7.19),
    ("CS(=O)(=O)Nc1cc([C@@H](O)CNCCCCCCCCCCN2CCC(OC(=O)Nc3ccccc3-c3ccc(O)c(Cl)c3)CC2)ccc1O", 7.68),
    ("CS(=O)(=O)Nc1cc([C@@H](O)CNCCCCCCCCCN2C[C@H]3C[C@@]3(COC(=O)Nc3ccccc3-c3ccc(O)c(Cl)c3)C2)ccc1O", 7.77),
    ("Cc1cc(C)c(NC(=O)OC2CCN(CCCCCCCCCNC[C@H](O)c3ccc(O)c(NS(C)(=O)=O)c3)CC2)c(-c2ccc(O)c(Cl)c2)c1", 7.44),
    ("CS(=O)(=O)Nc1cc([C@@H](O)CNCCCCCCCCCN2C3CCC2CC(OC(=O)Nc2ccccc2-c2ccc(O)c(Cl)c2)C3)ccc1O (stereo partly specified)", 7.64),
    ("CS(=O)(=O)Nc1cc([C@@H](O)CNCCCCCCCCCN2CCC(OC(=O)Nc3ccccc3-c3ccc(O)c(F)c3)CC2)ccc1O", 7.59),
    ("CS(=O)(=O)Nc1cc([C@@H](O)CNCCCCCCCCCN2CCC(OC(=O)Nc3cc(F)ccc3-c3ccc(O)c(Cl)c3)CC2)ccc1O", 7.24),
    ("CS(=O)(=O)Nc1cc([C@@H](O)CNCCCCCCCCCN2CC[C@@H](OC(=O)Nc3ccccc3-c3ccc(O)c(Cl)c3)C2)ccc1O", 7.62),
    ("CS(=O)(=O)Nc1cc([C@@H](O)CNCCCCCCCCCCCN2CCC(OC(=O)Nc3ccccc3-c3ccc(O)c(Cl)c3)CC2)ccc1O", 6.71),
    ("CS(=O)(=O)Nc1cc([C@@H](O)CNCCCCCCCCCN2CCC(OC(=O)Nc3ccccc3-c3cc(F)cc(F)c3O)CC2)ccc1O", 6.99),
    ("CS(=O)(=O)Nc1cc([C@@H](O)CNCCCCCCCCCN2CCC(OC(=O)Nc3ccccc3-c3ccccc3O)CC2)ccc1O", 7.05),
    ("CS(=O)(=O)Nc1cc([C@@H](O)CNCCCCCCCCCN2CCC(OC(=O)Nc3ccccc3-c3ccc(O)c(Cl)c3)CC2)ccc1O", 8.43),
    ("Cc1ccc(-c2ccc(O)c(Cl)c2)c(NC(=O)OC2CCN(CCCCCCCCCNC[C@H](O)c3ccc(O)c(NS(C)(=O)=O)c3)CC2)c1", 7.85),
    ("CS(=O)(=O)Nc1cc([C@@H](O)CNCCCCCCCCCN2CCC(OC(=O)Nc3ccccc3-c3ccc(O)cc3)CC2)ccc1O", 7.59),
    ("CS(=O)(=O)Nc1cc([C@@H](O)CNCCCCCCCCCN2CCC(OC(=O)Nc3ccccc3-c3cc(F)c(O)cc3F)CC2)ccc1O", 7.66),
    ("CS(=O)(=O)Nc1cc([C@@H](O)CNCCc2ccc(OCCCN3CCC(OC(=O)Nc4ccccc4-c4ccc(O)c(Cl)c4)CC3)cc2)ccc1O", 7.89),
]

----------
# Method: Drug metabolism of the compound in human liver microsomes assessed as glucuronidation in absence of NADPH and presence of microsomal activator Brij58 and UDPGA

# Molecule, microsomal CLint
data = [
    ("CS(=O)(=O)Nc1cc([C@@H](O)CNCCCCCCCCCN2CCC(OC(=O)Nc3ccccc3-c3ccc(F)cc3O)CC2)ccc1O", "< 2 µL/min/mg"),
    ("CS(=O)(=O)Nc1cc([C@@H](O)CNCCCCCCCCCN2CCC(OC(=O)Nc3ccccc3-c3cc(F)cc(F)c3O)CC2)ccc1O", "< 3.5 µL/min/mg"),
    ("CS(=O)(=O)Nc1cc([C@@H](O)CNCCCCCCCCCN2CCC(OC(=O)Nc3ccccc3-c3cccc(O)c3)CC2)ccc1O", "< 3.5 µL/min/mg"),
    ("CS(=O)(=O)Nc1cc([C@@H](O)CNCCCCCCCCCN2CCC(OC(=O)Nc3ccccc3-c3ccccc3O)CC2)ccc1O", "< 2 µL/min/mg"),
]
